System: Plasmodium berghei
experiment summary: Screen against P. berghei liver stage (PbLuc), transformed with Luciferase, at 10uM
Type: functional, HepG2
condition info: tested at 10 uM
Out of some 69,000 compounds screened, about 8,600 (12%) showed an effect of 50% or more. The list comes from a sample in which strong results are over-represented; it also holds close analogues and randomly drawn compounds.

# compound, unit abbrev, INHIBITION
measured = [
    ("Cn1nc(C(=O)NCc2ccccn2)c2c1CCS(=O)(=O)C2", "%", -45),
    ("Fc1cnc(N2CCOCC3(CCCN(c4nncs4)C3)C2)nc1 (configuration not stated)", "%", 41.5),
    ("CC(c1ccccc1)N(C)C(=O)CNCCn1cccn1 (configuration not stated)", "%", 31.1),
    ("c1ccc(Oc2nccnc2C2CCN(C3CCOCC3)CC2)cc1", "%", -38.3),
    ("Cc1nc(C(C)C)sc1C(=O)NCCNc1ncccn1", "%", 26.5),
    ("Cc1ccc(Oc2nccnc2C2CCN(C(=O)C(C)(C)N)CC2)cc1", "%", 33.7),
    ("OCc1ccc(CN2CCC(n3cc(-c4ccc(F)cc4)nn3)CC2)o1", "%", -0.529),
    ("CCN1CCN(C(=O)C2CCOC2)c2ccccc21 (configuration not stated)", "%", 48.3),
    ("Cc1ccc(N2CCc3sc(C(=O)N4CCOCC4)cc32)nn1", "%", -34),
    ("O=C(c1cscn1)N1C[C@H](OCc2cccnc2)[C@H]2COC[C@H]21", "%", 3.58),
    ("CC(C)N1[C@H](CN2CCCC2)C[C@@H]2CN(C(=O)c3ccoc3)CC[C@@H]21", "%", 15.9),
    ("Cn1nc(C(=O)NCc2ccc(Cl)cc2)c2c1CCS(=O)(=O)C2", "%", 53.2),
    ("CCOCC1CCN(C(=O)c2sc(C)cc2OC(F)F)CC1", "%", 0.325),
    ("CCn1nc(C)c2nn(CC(=O)NC3CCSCC3)cc21", "%", 25.4),
    ("COCCN1CCN(C(=O)N2CCCC2)Cc2ccc(C)nc21", "%", 62.5),
    ("Cc1ccc2c(n1)N(CC1CC1)CCN(C(=O)NC1CC1)C2", "%", 30.3),
    ("CCN1CCOCC2(CCCN(c3nncs3)C2)C1 (configuration not stated)", "%", 52.3),
    ("Cn1nc(CNC(=O)C2CCC2)cc1C1CC1", "%", -34.5),
    ("Cn1nc(C(=O)NCc2ccc(F)cc2)c2c1CCS(=O)(=O)C2", "%", 21.7),
    ("CN(C[C@@H]1CCC[C@@H]2CN(Cc3cccnc3)C[C@@H]21)C1CC1", "%", -5.63),
    ("Cc1cncc(C2CCN(Cc3cnc(C)nc3)CC2)n1", "%", 36.44),
    ("CC1=N[C@@]2(CC[C@@H]3CN(Cc4ccccc4F)C[C@@H]32)C(=O)N1C", "%", 19.8),
    ("Cc1ccc(N2CCCN(CC3CC3)C(C(C)C)C2)nn1 (configuration not stated)", "%", 23),
    ("Cc1cccc(CN2C[C@@H]3CCCO[C@@H]3[C@H](Nc3ccccn3)C2)n1", "%", 25.3),
    ("CC(C)C(=O)NCc1ccnc(Oc2ccc(F)cc2)c1", "%", 32.5),
    ("NCc1ccnc(Oc2ccc(F)cc2)c1", "%", 82.9),
    ("Cn1nc(C(=O)NCc2cccs2)c2c1CCS(=O)(=O)C2", "%", 23.4),
    ("Cc1cc(C)c(CNC(=O)N2CCN(c3nccs3)CC2)c(=O)[nH]1", "%", -5.6),
    ("Fc1cccc(Oc2nccnc2C2CCN(C3CCOCC3)CC2)c1", "%", 52.7),
    ("CC(C)(C)CC(NC(=O)N1CCC(C(N)=O)CC1)C(F)(F)F (configuration not stated)", "%", -50.7),
    ("CC(C)(N)C(=O)N1CCC(c2nccnc2Oc2ccccc2F)CC1", "%", 63.4),
    ("Cc1ccc2c(n1)N(CCn1cccn1)CCN(C(=O)NC1CC1)C2", "%", 37.8),
    ("Cc1ccc(-c2cn(C3CCN(C(=O)[C@H]4CCCO4)CC3)nn2)cc1", "%", 23.3),
    ("O=S(=O)(NCc1ccnc(-n2ccnc2)c1)c1cncc(Cl)c1", "%", 15.2),
    ("O=C(NCc1ccoc1)c1ccc(C2CCCN2CC2CCOCC2)s1 (configuration not stated)", "%", 22.7),
    ("CCc1nc(CN2CCCN(CC(=O)N3CCOCC3)CC2)no1", "%", 13.8),
    ("c1coc(CN2CCc3onc(Cn4cccc4)c3C2)c1", "%", 20.1),
    ("CS(=O)(=O)CCCSc1n[nH]c(-c2ccc3c(c2)CCC3)n1", "%", -18.8),
    ("Oc1ccccc1CN1CCC(n2cc(-c3ccc(F)cc3)nn2)CC1", "%", 55),
    ("O=C(C1CCCO1)N1CCC(n2cc(-c3ccc(F)cc3)nn2)CC1 (configuration not stated)", "%", -10.9),
    ("CC(=O)NCCCC(=O)NC(C)c1nnc2n1CCC2 (configuration not stated)", "%", 1.75),
    ("Cc1ccc2c(n1)N(CCN(C)C)CCN(C(=O)N1CCOCC1)C2", "%", 18.3),
    ("Cn1cc(-n2cc3nc(N4CCOCC4)[nH]cc-3c2=O)cn1", "%", -38.7),
    ("COc1cc(CN2CCC3(CC(Nc4ccncn4)C3)C2)cc(OC)c1 (configuration not stated)", "%", 44.1),
    ("COc1ccc(CNCC(C)Oc2ccccn2)cc1Br (configuration not stated)", "%", -33.2),
    ("Cc1nn(C)c(N2CCOCC2)c1CNC1COc2ccccc2C1 (configuration not stated)", "%", 5.03),
    ("Cc1ccc(NC2CCN(C(=O)CCCc3cccs3)CC2)nn1", "%", -3.7),
]

Where do the numbers come from? From ChEMBL document CHEMBL4513216.
